Overview of recorded hERG current change (%, negative = inhibition) at 10uM for various molecules
- test-system: human ether-à-go-go-related gene (hERG) potassium channel (human);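 note: peak tail current of the secondary pulse compared with the same well before compound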
- Sequence (Q12809 whole entry, looked up): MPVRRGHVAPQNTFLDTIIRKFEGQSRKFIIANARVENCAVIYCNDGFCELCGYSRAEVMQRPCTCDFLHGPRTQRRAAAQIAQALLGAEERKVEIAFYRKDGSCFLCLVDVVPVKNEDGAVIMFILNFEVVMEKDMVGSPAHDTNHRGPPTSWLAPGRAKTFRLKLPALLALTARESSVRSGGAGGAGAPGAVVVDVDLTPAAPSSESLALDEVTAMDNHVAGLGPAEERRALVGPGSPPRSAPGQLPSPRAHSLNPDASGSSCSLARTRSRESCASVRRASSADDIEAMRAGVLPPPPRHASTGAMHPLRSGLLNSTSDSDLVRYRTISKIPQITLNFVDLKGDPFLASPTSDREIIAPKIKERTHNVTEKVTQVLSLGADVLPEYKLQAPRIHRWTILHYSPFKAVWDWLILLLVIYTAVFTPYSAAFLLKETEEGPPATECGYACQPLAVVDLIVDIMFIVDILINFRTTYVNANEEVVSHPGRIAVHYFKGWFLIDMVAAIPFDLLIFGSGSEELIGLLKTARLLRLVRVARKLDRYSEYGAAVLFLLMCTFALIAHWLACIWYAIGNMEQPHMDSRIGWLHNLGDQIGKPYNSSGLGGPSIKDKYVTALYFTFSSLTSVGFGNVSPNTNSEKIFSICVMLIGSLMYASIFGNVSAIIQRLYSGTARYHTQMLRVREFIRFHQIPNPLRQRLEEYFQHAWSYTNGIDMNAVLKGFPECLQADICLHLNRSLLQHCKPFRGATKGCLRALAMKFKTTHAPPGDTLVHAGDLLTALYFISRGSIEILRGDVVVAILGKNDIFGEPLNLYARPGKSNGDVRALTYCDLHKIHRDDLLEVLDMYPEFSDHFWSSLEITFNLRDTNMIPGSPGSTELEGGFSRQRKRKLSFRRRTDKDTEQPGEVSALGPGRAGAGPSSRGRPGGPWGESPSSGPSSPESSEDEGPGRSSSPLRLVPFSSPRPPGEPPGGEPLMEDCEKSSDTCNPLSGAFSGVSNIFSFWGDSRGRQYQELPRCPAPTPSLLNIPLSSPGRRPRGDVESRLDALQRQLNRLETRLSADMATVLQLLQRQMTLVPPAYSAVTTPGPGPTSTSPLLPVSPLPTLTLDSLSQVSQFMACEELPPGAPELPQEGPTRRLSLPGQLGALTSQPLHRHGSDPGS
- assay-overview: primary screen, population patch clamp on CHO cells stably expressing hERG; higher = less effect of the substance
About 14,000 (4.5%) of roughly 310,000 compounds showed an effect of 50% or more. Effects have a minus sign here. What follows is part of a selection rich in strong results, with near analogues and random picks from the rest.
Please give a number only; it is taken to be in %.

O=C(NCCS(=O)(=O)N1CCN(c2ccc(F)cc2)CC1)c1ccc(Br)o1	-60.1
O=C(NCCS(=O)(=O)N1CCN(c2cccc(Cl)c2)CC1)c1cc(=O)c2ccccc2o1	5.36
O=C(NCCS(=O)(=O)N1CCN(c2cccc(Cl)c2)CC1)C1CCCC1	-79
COc1ccc(N2CCN(S(=O)(=O)CCNC(=O)c3ccc(Br)o3)CC2)cc1	10.6

Let me know recorded hERG current change (%, negative = inhibition) at 10uM for Cc1cccc(CC(=O)NCCS(=O)(=O)N2CCN(c3cccc(Cl)c3)CC2)c1 , thanks.
-20.2

---

- test-system: human ether-à-go-go-related gene (hERG) potassium channel (human);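 note: peak tail current of the secondary pulse compared with the same well before compound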
- assay-overview: primary screen, population patch clamp on CHO cells stably expressing hERG; higher = less effect of the substance
Screen size: about 310,000 compounds; about 14,000 (4.5%) showed an effect of 50% or more. The effect is printed as a negative number. This excerpt belongs to a sample that is enriched for strong results.
readout-label: hERG current change (%, negative = inhibition) at 10uM (%)
The figure you give is taken to be in %; do not add the unit.

CCOC(=O)c1c(C)[nH]c(C2=NNC(=NC3CC3)SC2)c1C	-30.1
CN1CCN(Cc2nc3c(c(=O)[nH]c(=O)n3C)n2CCc2ccccc2)CC1	-28.1
CCN1CCN(c2nc3c(c(=O)[nH]c(=O)n3C)n2CCCc2ccccc2)CC1	-79.2
CCc1ccccc1NC(=O)c1cc2ncc(Br)cn2n1	9.22
COCCNC(=O)c1nn2cccnc2c1Cl	-11.3
COc1ccc(/C=N/n2cnc3c([nH]c4ccc(F)cc43)c2=O)cc1CN1CCCC1	-68
CC(C)CCn1c(CN2CCN(Cc3ccccc3)CC2)nc2c1c(=O)[nH]c(=O)n2C	-17.6

Please list hERG current change (%, negative = inhibition) at 10uM recorded for the compound COc1ccc(C)cc1NC(=O)CN1CCN(c2ccc(F)cc2)CC1
-50.4

---

- test-system: human ether-à-go-go-related gene (hERG) potassium channel (human);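 note: peak tail current of the secondary pulse compared with the same well before compound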
- assay-overview: primary screen, population patch clamp on CHO cells stably expressing hERG; higher = less effect of the substance
About 14,000 (4.5%) of roughly 310,000 compounds showed an effect of 50% or more. Effects have a minus sign here. The full list was thinned out, with strong results kept by preference.
// reported hERG current change (%, negative = inhibition) at 10uM for each item listed
# value in %; strip the unit string

Cc1ccc(C(=O)N2CC(=O)Nc3ccc(F)cc3C2c2ccccc2)cc1 (stereo not shown)	-4.56
Cc1cccn2c(=O)c3cc(C(=O)NCc4cccnc4)c(=N)n(CC4CCCO4)c3nc12 (stereo not shown)	-75.6
Cc1cccn2c(=O)c3cc(C(=O)NCC4CCCO4)c(=N)n(Cc4cccnc4)c3nc12 (stereo not shown)	-95.1

Determine from records and report hERG current change (%, negative = inhibition) at 10uM for Cc1cccn2c(=O)c3cc(C(=O)NCCN4CCOCC4)c(=N)n(Cc4cccnc4)c3nc12
-18.4

# return recorded hERG current change (%, negative = inhibition) at 10uM for entry O=C(O)/C(=C\c1c(C(=O)O)[nH]c2cc(Cl)cc(Cl)c12)c1ccccc1
13.3

Quick one: give measured hERG current change (%, negative = inhibition) at 10uM for O=C1CN(C(=O)c2ccccc2)C(c2ccccc2)c2cc(F)ccc2N1 (stereo not shown)
-75.1

Output measured hERG current change (%, negative = inhibition) at 10uM for this item: O=C(NCc1cccnc1)C(=O)NCC1CCCO1 (stereo not shown)
21.5
